Test system: 266 human PDZ domains (PDZome)
Assay: Holdup assay (chromatographic retention, PDZome-binding profile, BI)
Design: key: binding intensity: 0.00 = no binding, 1.00 = maximal binding
Conditions: PDZ domain MPDZ-7
*1 amine or outer side, *2 acyl side, *3 side chain or, on linkers, in order; H or OH if unused. Where a SMILES comes first, the peptide text is derived from it. The star is where a group is joined. X1 = O=C(CCCC[C@@H]1SC[C@@H]2NC(=O)N[C@@H]21)NCCCOCCOCCOCCCN*; Suc = O=C(CCC(=O)[*:2])[*:1]
OBSERVED_PROPERTY: BI

MOLECULE	OBSERVED_PROPERTY	RECORDED_VALUE
CC[C@H](C)[C@H](NC(=O)[C@H](CCC(N)=O)NC(=O)[C@@H](NC(=O)[C@H](Cc1c[nH]cn1)NC(=O)[C@H](CCC(N)=O)NC(=O)[C@H](CC(=O)O)NC(=O)[C@H](CCC(=O)O)NC(=O)[C@H](CC(=O)O)NC(=O)CCC(=O)NCCCOCCOCCOCCCNC(=O)CCCC[C@@H]1SC[C@@H]2NC(=O)N[C@@H]21)[C@@H](C)O)C(=O)N[C@H](C(=O)N[C@@H](CCCCNC(C)=O)C(=O)N[C@H](C(=O)O)C(C)C)[C@@H](C)O	BI	0.624

## Input Fill in: BI of CC[C@H](C)[C@H](NC(=O)[C@H](CCC(N)=O)NC(=O)[C@@H](NC(=O)[C@H](Cc1c[nH]cn1)NC(=O)[C@H](CCC(N)=O)NC(=O)[C@H](CC(=O)O)NC(=O)[C@H](CCC(=O)O)NC(=O)[C@H](CC(=O)O)NC(=O)CCC(=O)NCCCOCCOCCOCCCNC(=O)CCCC[C@@H]1SC[C@@H]2NC(=O)N[C@@H]21)[C@@H](C)O)C(=O)N[C@H](C(=O)N[C@@H](CCCCN)C(=O)N[C@H](C(=O)O)C(C)C)[C@@H](C)O is ___
## Output 0.154

## Input Fill in: BI of CC[C@H](C)[C@H](NC(=O)[C@H](CCC(N)=O)NC(=O)[C@@H](NC(=O)[C@H](Cc1c[nH]cn1)NC(=O)[C@H](CCC(N)=O)NC(=O)[C@H](CC(=O)O)NC(=O)[C@H](CCC(=O)O)NC(=O)[C@H](CC(=O)O)NC(=O)[C@H](Cc1ccccc1)NC(=O)[C@@H]1CCCN1C(=O)CCC(=O)NCCCOCCOCCOCCCNC(=O)CCCC[C@@H]1SC[C@@H]2NC(=O)N[C@@H]21)[C@@H](C)O)C(=O)N[C@H](C(=O)N[C@@H](CCCCN)C(=O)N[C@H](C(=O)O)C(C)C)[C@@H](C)O [PTEN_13] ({X1-Suc}-PFDEDQHTQITKV-OH) is ___
## Output 0.23

## Input Fill in: BI of CC[C@H](C)[C@H](NC(=O)[C@H](CCC(N)=O)NC(=O)[C@@H](NC(=O)[C@H](Cc1c[nH]cn1)NC(=O)[C@H](CCC(N)=O)NC(=O)[C@H](CC(=O)O)NC(=O)[C@H](CCC(=O)O)NC(=O)[C@H](CC(=O)O)NC(=O)CCC(=O)NCCCOCCOCCOCCCNC(=O)CCCC[C@@H]1SC[C@@H]2NC(=O)N[C@@H]21)[C@@H](C)O)C(=O)N[C@H](C(=O)N[C@@H](CCCNC(=N)N)C(=O)N[C@H](C(=O)O)C(C)C)[C@@H](C)O [PTEN_KR] ({X1-Suc}-DEDQHTQITRV-OH) is ___
## Output 0.267

Source: paper PMC7774954
